Data origin, for the record: patent EP4553077A1

Examples of compounds with documented IC50 follow.
target: Ba/F3-TEL-FGFR1 (Homo sapiens, UniProt P11362+P41212)
Sequence (P11362 478-767 limits assumed, one chain of several): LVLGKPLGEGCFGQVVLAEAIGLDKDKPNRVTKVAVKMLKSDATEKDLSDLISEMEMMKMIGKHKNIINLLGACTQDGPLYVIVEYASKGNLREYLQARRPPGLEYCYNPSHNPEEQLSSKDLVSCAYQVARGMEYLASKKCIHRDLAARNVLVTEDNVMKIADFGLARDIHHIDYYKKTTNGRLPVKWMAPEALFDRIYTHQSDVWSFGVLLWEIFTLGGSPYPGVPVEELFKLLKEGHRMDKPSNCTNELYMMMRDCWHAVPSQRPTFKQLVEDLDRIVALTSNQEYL
procedure_text: Cell viability (proliferation inhibition) of Ba/F3 cells, CellTiter Glo
condition_context: read-out: Ba/F3 cell FGFR1 (IC50 nM), 72 h
Only the number, expressed in nM, is required.

> print(dat)
                           molecular.string  measured.result
1  [2H]C([2H])([2H])n1c(-c2ccc(NC(=O)C(=C)C)cc2Cl)c(-c2ccc(N=S3(=O)CCC3)c(F)c2)c2c(N)ncnc21              250
2  C=C(C)C(=O)Nc1ccc(-c2c(-c3ccc(N=S4(=O)CCCC4)c(F)c3)c3c(N)ncnc3n2C)c(F)c1              568
3  C=C(C)C(=O)Nc1ccc(-c2c(-c3ccc(N=S4(=O)CCC4)c(F)c3)c3c(N)ncnc3n2C)c(Cl)c1              300
4  [2H]C([2H])([2H])n1c(-c2ccc(NC(=O)C(=C)C)cc2F)c(-c2ccc(N=S3(=O)CCCC3)c(Cl)c2)c2c(N)ncnc21              484
5  C=C(C)C(=O)Nc1ccc(-c2c(-c3ccc(N=S4(=O)CCCC4)c(F)c3)c3c(N)ncnc3n2C)cc1             2310

Check the records and state IC50 for C=C(C)C(=O)Nc1ccc(-c2c(-c3ccc(N=S4(=O)CCCC4)c(C(F)F)c3)c3c(N)ncnc3n2C)c(F)c1
686

Supply IC50 value. Item: C=C(C)C(=O)Nc1ccc(-c2c(-c3ccc(N=S4(=O)CCCCC4)c(F)c3)c3c(N)ncnc3n2C)c(F)c1
627

====

procedure_text: Pharmacokinetic test in rats
Format: in vivo, male SD rats
condition_context: rat, plasma, oral gavage administration, 10 mg/kg
Entries and their half-life values follow.
Reply numerically in h, unit not repeated.

Check out these entries, answers already filled in.
> print(dat)
                                   compound  measured.result
1  C=C(C)C(=O)Nc1ccc(-c2c(-c3ccc(N=S(=O)(N(C)C)C(F)(F)F)c(F)c3)c3c(N)ncnc3n2C)cc1 (stereo not drawn)             3.44
2  C=C(C)C(=O)Nc1ccc(-c2c(-c3ccc(N=S4(=O)CCC4)cc3)c3c(N)ncnc3n2C)c(F)c1             1.81
3  C=C(C)C(=O)Nc1ccc(-c2c(-c3ccc(N=S4(=O)CCCC4)cc3)c3c(N)ncnc3n2C)c(F)c1             1.43
4  C=C(C)C(=O)Nc1ccc(-c2c(-c3ccc(N=S(=O)(CC)CC)cc3)c3c(N)ncnc3n2C)c(F)c1             3.18

Supply recorded half-life for C=C(C)C(=O)Nc1ccc(-c2c(-c3ccc(N=S4(=O)CC(C)(C)C4)cc3)c3c(N)ncnc3n2C)c(F)c1 here.
2.59

Kindly indicate its recorded half-life. Item: [2H]C([2H])([2H])n1c(-c2ccc(NC(=O)C(=C)C)cc2F)c(-c2ccc(N=S3(=O)CCCC3)cc2)c2c(N)ncnc21
1.87

====

In what follows, each item is paired with its IC50 for CYP2D6 (Homo sapiens, UniProt P10635).
Numeric answer only, unit µM assumed.

> print(dat)
                           molecular.string  result.unit  measured.result
1  C=C(C)C(=O)Nc1ccc(-c2c(-c3ccc(N=S4(=O)CCC4)c(F)c3)c3c(N)ncnc3n2C)cc1           µM             5.54

For CYP2D6 (Homo sapiens, UniProt P10635), give IC50 of the listed molecule: C=C(C)C(=O)Nc1ccc(-c2c(-c3ccc(N=S(=O)(CC)CC)cc3)c3c(N)ncnc3n2C)c(F)c1
9.81

System CYP2D6 (Homo sapiens, UniProt P10635). Read-out IC50. Item [2H]C([2H])([2H])n1c(-c2ccc(NC(=O)C(=C)C)cc2F)c(-c2ccc(N=S3(=O)CCCC3)cc2)c2c(N)ncnc21 . Report value.
8.77

Quote IC50 with test system CYP2D6 (Homo sapiens, UniProt P10635) for C=C(C)C(=O)Nc1ccc(-c2c(-c3ccc(N=S4(=O)CCCC4)cc3)c3c(N)ncnc3n2C)c(F)c1
14.3
